B1: TPR t1 (parent)
chain: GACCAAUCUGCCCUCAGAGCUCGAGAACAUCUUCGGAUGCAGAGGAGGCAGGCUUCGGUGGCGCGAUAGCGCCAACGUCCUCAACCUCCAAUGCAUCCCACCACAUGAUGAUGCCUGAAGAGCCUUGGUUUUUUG

Variants of: B1
Experiment: polymerase ribozyme fitness, log enrichment relative to wild type (log ratio); higher = more active; in vitro selection for triplet polymerase activity
readout: polymerase ribozyme fitness (log ratio)
Form rule: numeric answer, no unit written next to it.

The following variants have reported results that may help.
{"columns": ["mut", "polymerase ribozyme fitness (log ratio)"],
 "data": [
  ["G39A G71A C86A A100C", -4],
  ["U54A C94A G113U", -3.97],
  ["A29G A37U G61U", -1.98]
]}

Now take the following variant into account.
Which polymerase ribozyme fitness (log ratio) value belongs to U14G A50C C101A ? -3.99
